# tgt: HOXB1HD;PBX1HD (;, UniProt P14653;P40424 171-266;227-317, |)
# Sequence (P14653 171-266, chain 1 of 2): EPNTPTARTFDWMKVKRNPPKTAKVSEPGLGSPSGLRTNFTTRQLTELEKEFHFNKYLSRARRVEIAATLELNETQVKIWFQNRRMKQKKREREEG
# Sequence (P40424 227-317, chain 2 of 2): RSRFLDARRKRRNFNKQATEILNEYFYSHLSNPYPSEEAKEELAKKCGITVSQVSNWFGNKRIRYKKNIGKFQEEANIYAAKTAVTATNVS
# assay_info: fluorescence polarization; HOXB1HD titrated into preformed PBX1HD:PMH; FP and EMSA: 20 mM Na/K phosphate pH 7.2, 150 mM NaCl, 5% glycerol, 1 mM TCEP, room temperature (FP 9 nM DNA, 30 min; EMSA gel run at 4 C in 0.5x TBE); NMR: 20
# experimental_parameters: protein: recombinant;recombinant; tags: GST cleaved (pGEX-6P);GST cleaved (pGEX-6P); copies: 1;1; label: 5' 6-FAM (FP); unlabeled in EMSA and NMR
property_name: Kd

# binder, endpoint_value
records = [
    ("PMH (dsDNA) DNA 1: AGTGATTGACAGATTC DNA 2: GAATCTGTCAATCACT", "1300 nM"),
]
